Experiment: Competitive equilibration of Pattern A, B and C forms in solvents
Type: physicochemical
Settings: suspension in 0.5 ml solvent agitated 24 hours; AB = Pattern A 15 mg + Pattern B 30 mg, AC = Pattern A 15 mg + Pattern C 30 mg; 1 IPA, 2 toluene, 3 iPrOAc, 4 MeCN, 5 MEK, 6 2-MeTHF
Readout name: Summary of solid form characterisation, XRPD

[[record]]
molecule = "COc1ccc2[nH]cc(CCN(C)C)c2c1.O=C(O)c1ccccc1 [AB2]"
measured_value = "Pattern C"

[[record]]
molecule = "COc1ccc2[nH]cc(CCN(C)C)c2c1.O=C(O)c1ccccc1 [AC2]"
measured_value = "Pattern C"

[[record]]
molecule = "COc1ccc2[nH]cc(CCN(C)C)c2c1.O=C(O)c1ccccc1 [AC1]"
measured_value = "Pattern A"

[[record]]
molecule = "COc1ccc2[nH]cc(CCN(C)C)c2c1.O=C(O)c1ccccc1 [AB5]"
measured_value = "Pattern A"

[[record]]
molecule = "COc1ccc2[nH]cc(CCN(C)C)c2c1.O=C(O)c1ccccc1 [AB3]"
measured_value = "Pattern A"

[[record]]
molecule = "COc1ccc2[nH]cc(CCN(C)C)c2c1.O=C(O)c1ccccc1 [AB6]"
measured_value = "Pattern A"

[[record]]
molecule = "COc1ccc2[nH]cc(CCN(C)C)c2c1.O=C(O)c1ccccc1 [AB1]"
measured_value = "Pattern A"

[[record]]
molecule = "COc1ccc2[nH]cc(CCN(C)C)c2c1.O=C(O)c1ccccc1 [AC4]"
measured_value = "Pattern A"

[[record]]
molecule = "COc1ccc2[nH]cc(CCN(C)C)c2c1.O=C(O)c1ccccc1 [AB4]"
measured_value = "Pattern A"


* * *

Assay: Toxicokinetics, 14-day intranasal study in rats (Study 700041)
Assay type: in vivo
Details: male, Sprague Dawley, rat, plasma, inhaled or intranasal, 20 mg/kg/day, Day 1, Male
Readout name: Cmax (ng/mL)

[[record]]
structure = "COc1ccc2[nH]cc(CCN(C)C)c2c1"
readout_name = "Cmax"
u = "ng/mL"
measured_value = 4190


* * *

Test: Toxicokinetics, 14-day intranasal study in rats (Study 700041)
Type: in vivo
Conditions: male, Sprague Dawley, rat, plasma, inhaled or intranasal, 20 mg/kg/day, Day 14, Male, read-out: AUCINF_obs
Readout name: AUC(0-inf) (ng·h/mL)

[[record]]
structure = "COc1ccc2[nH]cc(CCN(C)C)c2c1"
readout_name = "AUC(0-inf)"
u = "ng·h/mL"
measured_value = 133


* * *

Test: Toxicokinetics, 14-day intranasal study in dogs (Study 62959)
Assay type: in vivo
Conditions: male, Beagle, dog, plasma, inhaled or intranasal, 0.8 mg/kg/day, Day 1, Male, read-out: AUCINF_obs
Readout name: AUC(0-inf) (µg·h/mL)

[[record]]
molecule = "COc1ccc2[nH]cc(CCN(C)C)c2c1 [BPL-5MEO, 5-methoxy-N,N-dimethyltryptamine]"
readout_name = "AUC(0-inf)"
u = "µg·h/mL"
measured_value = 0.16


* * *

Assay: Toxicokinetics, 14-day intranasal study in dogs (Study 62959)
Type: in vivo
Settings: female, beagle, dog, plasma, inhaled or intranasal, 0.4 mg/kg/day, Day 14, Female, read-out: AUC0-Tlast
Readout name: AUC(0-t) (ng·h/mL)

[[record]]
structure = "COc1ccc2[nH]cc(CCN(C)C)c2c1"
measured_value = 86.4

